# merged literature set: pIC50 with TBK1 (Homo sapiens)
pIC50: −log10 of the molar value.
Observation Type: pIC50

# Compound, Reading Qualifier, Meas Value
records = [
    ("CC1C=C(c2c[nH]c3ncc(-c4ccc(CN5CCOCC5)s4)cc23)CCN1C(=O)NC1CCC1 (centres unmarked)", "=", 8.00),
    ("Cc1cnccc1NC(=O)c1cc(-c2ccc(-n3cccn3)cc2)cnc1N", "=", 6.00),
    ("COc1cc(C(=O)N[C@H]2CCCNC2)ccc1-c1cc2nccc(-c3ccc(OC4CCOCC4)c(C#N)c3)c2o1", ">", 6.52),
    ("CC1CN(C(=O)NC2CCCC2)CC=C1c1c[nH]c2ncc(-c3cccc(S(N)(=O)=O)c3)cc12 (centres unmarked)", "=", 7.55),
    ("COCCn1cc(-c2cnc(N)c(C(=O)Nc3ccncc3)c2)cn1", "=", 7.17),
    ("CC(C)OC(=O)N1CC=C(c2c[nH]c3ncc(-c4cccc(S(N)(=O)=O)c4)cc23)CC1", "<", 5.00),
    ("N#Cc1cc(-c2ccnc(Nc3ccc(CO)cn3)c2)ccc1OCC1CCC1", "=", 7.05),
    ("N#Cc1cc(-c2ccnc3cc(-c4cncc(C(=O)N5CCOCC5)c4)oc23)ccc1OC1CCOCC1", ">", 6.52),
    ("COc1nc(Nc2cc(-c3ccc(OC4CCOCC4)c(C#N)c3)ncn2)ccc1N1C[C@@H](C)O[C@@H](C)C1", ">", 7.00),
    ("N#Cc1cc(-c2ccnc(Nc3ccn(C4CCNCC4)n3)c2)ccc1OCC1CC1", "=", 7.30),
    ("CC(C)N1CCC(n2cc(Nc3ncc4ccn(CCCNC(=O)C5CCC5)c4n3)cn2)CC1", ">", 7.00),
    ("NC(=O)c1nc(-c2ccncc2)sc1NC(=O)c1cnn(CC2CCNCC2)c1", "=", 5.10),
    ("N#Cc1cc(-c2ccnc3cc(-c4cnn(CCN5CCOCC5)c4)oc23)ccc1OC1CCOCC1", ">", 6.52),
    ("CCCCN(C)c1ccc(-c2ccnc(Nc3cccc(OC)c3)n2)c2c1C(=O)NC2", "=", 5.59),
    ("CCOC(=O)N1CC=C(c2c[nH]c3ncccc23)CC1", "=", 5.96),
    ("N#Cc1cc(-c2ccnc(Nc3cncc(C4=CCCCO4)n3)c2)ccc1OC1CCOCC1", "=", 6.07),
    ("COc1nc(Nc2cc(-c3ccc(OC4CCOCC4)c(C#N)c3)ncn2)ccc1C(=O)N(C)C", ">", 7.00),
    ("COc1nc(Nc2cc(-c3ccc(OC4CCN(C(=O)[C@@H](C)O)CC4(F)F)c(C#N)c3)ncn2)ccc1N1CCN(C2COC2)CC1 (some centres unmarked)", ">", 7.00),
    ("COCCn1cc(Nc2nccc(-c3ccc(OCC4CCC4)c(C#N)c3)n2)cn1", "=", 8.15),
    ("N#Cc1cc(-c2ccnc(Nc3cnn([C@H]4CC[C@@H](O)CC4)c3)n2)ccc1OC1CCOCC1", "=", 8.10),
    ("CCCCN(C)c1ccc(-c2ccnc(Nc3cccc(OC)c3)n2)c2c1C(=O)N(C)C2", "<", 5.00),
    ("CNS(=O)(=O)c1ccc(-c2cnc3[nH]cc(C4=CCN(C(=O)c5cccs5)CC4)c3c2)cc1", "=", 7.35),
    ("COc1nc(Nc2cc(-c3ccc(OC4CCN(C(=O)c5cnco5)CC4)c(C#N)c3)ncn2)ccc1C(=O)N(C)C", ">", 7.00),
    ("COc1nc(Nc2cc(-c3ccc(OC4CCNCC4)c(C#N)c3)ncn2)ccc1N1CCN(C)CC1", ">", 7.00),
    ("COc1nc(Nc2cc(-c3ccc(OC4CCOCC4)c(C#N)c3)ncn2)ccc1N1CCN(C)CC1", ">", 7.00),
    ("N#Cc1cc(-c2ccnc(Nc3cccc(C4CCNCC4)n3)c2)ccc1OC1CCOCC1", "=", 7.49),
    ("COc1nc(Nc2cc(-c3ccc(OC4CN(C)C4)c(C#N)c3)ncn2)ccc1N1CCN(C)CC1", ">", 7.00),
    ("CC1(COc2ccc(-c3c[nH]c4ncc(-c5cn[nH]c5)cc34)cc2C#N)COC1", ">", 6.52),
    ("CC(C)NC(=O)N1CC=C(c2c[nH]c3ncc(-c4cccc(F)c4)cc23)CC1", "=", 7.96),
]

---

# merged literature set: IC50 with TBK1 (Homo sapiens)

# Smiles Data, Reading Qualifier, IC50 / nM
rows = [
    ("O=C(NCCCn1ccc2cnc(Nc3cccc(-c4cnco4)c3)nc21)C1CCC1", "<", 100),
    ("CC(C)NC(=O)N1CC=C(c2c[nH]c3ncc(-c4ccc(CN5CCCC5)o4)cc23)CC1", "=", 570),
    ("N#Cc1cc(-c2c[nH]c3ncc(-c4cn(CCN5CCCC5)nn4)cc23)ccc1OC1CCOCC1", "<", 300),
    ("N#Cc1cc(-c2ccnc(Nc3cnc(CO)cn3)c2)ccc1OC1CCOCC1", "=", 6),
]

---

# merged literature set: log10(IC50) with TBK1 (Homo sapiens, UniProt Q9UHD2)
# Sequence (Q9UHD2 whole entry): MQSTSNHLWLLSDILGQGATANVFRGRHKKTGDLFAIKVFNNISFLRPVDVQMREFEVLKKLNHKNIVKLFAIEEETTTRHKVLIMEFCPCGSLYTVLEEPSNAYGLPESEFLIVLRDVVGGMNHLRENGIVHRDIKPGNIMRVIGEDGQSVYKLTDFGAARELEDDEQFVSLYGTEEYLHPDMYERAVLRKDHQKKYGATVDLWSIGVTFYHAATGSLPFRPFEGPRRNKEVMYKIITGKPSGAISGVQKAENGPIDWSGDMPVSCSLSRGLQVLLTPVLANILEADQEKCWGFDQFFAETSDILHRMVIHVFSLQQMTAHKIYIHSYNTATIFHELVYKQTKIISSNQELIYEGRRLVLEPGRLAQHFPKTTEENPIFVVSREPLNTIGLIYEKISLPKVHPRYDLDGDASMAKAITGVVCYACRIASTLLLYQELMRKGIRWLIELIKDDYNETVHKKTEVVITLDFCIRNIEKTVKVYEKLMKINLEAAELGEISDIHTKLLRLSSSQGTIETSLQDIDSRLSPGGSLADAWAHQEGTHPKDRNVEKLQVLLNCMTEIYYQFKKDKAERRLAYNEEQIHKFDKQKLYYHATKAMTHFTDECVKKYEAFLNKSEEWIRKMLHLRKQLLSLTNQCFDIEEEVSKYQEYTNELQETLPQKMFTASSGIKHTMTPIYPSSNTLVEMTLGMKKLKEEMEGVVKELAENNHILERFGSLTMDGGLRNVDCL
Observation Type: log10(IC50) (log10 of the value in nM)

# Smiles Data, Assayed Target, Meas Value
rows = [
    ("CCC(CC)NC(=O)N1CC=C(c2c[nH]c3ncc(-c4ccc(CN5CCN(C)CC5)s4)cc23)CC1", "TBK1 (Homo sapiens, UniProt Q9UHD2)", 1.67),
    ("Nc1ccc(-c2c[nH]c3ncc(-c4ccccc4)cc23)c2c1C(=O)NC2", "TBK1 (Homo sapiens, UniProt Q9UHD2)", 2.81),
    ("Nc1ncc(-c2cnc3ccccn23)cc1C(=O)Nc1ccncc1", "TBK1 (Homo sapiens, UniProt Q9UHD2)", 2.57),
    ("Cc1cc(NC(=O)c2cc(-c3csc(CN4CCOCC4)c3)cnc2N)ccn1", "TBK1 (Homo sapiens, UniProt Q9UHD2)", 2.83),
    ("CN(C)C(=O)CCCCc1ccc(C(=O)Nc2sc(-c3ccncc3)nc2C(N)=O)cc1", "TBK1 (Homo sapiens, UniProt Q9UHD2)", 2.00),
    ("CNS(=O)(=O)c1cccc(-c2cnc3[nH]cc(C4=CCN(C(=O)OC5CCCC5)CC4)c3c2)c1", "TBK1 (Homo sapiens, UniProt Q9UHD2)", 1.99),
    ("CC(C)NC(=O)N1CC=C(c2c[nH]c3ncc(-c4cccc(C(=O)N5CCN(C)CC5)c4)cc23)CC1", "TBK1 (Homo sapiens, UniProt Q9UHD2)", 1.18),
    ("N#Cc1cc(-c2ccnc(Nc3cnn([C@H]4CC[C@H](O)CC4)c3)n2)ccc1OC1CCOCC1", "TBK1 (Homo sapiens, UniProt Q9UHD2)", 0.48),
    ("O=C(NC1CC1)N1CC=C(c2c[nH]c3ncc(-c4ccc(CN5CCOCC5)s4)cc23)CC1", "TBK1 (Homo sapiens, UniProt Q9UHD2)", 0.91),
    ("CC(C)(C)OC(=O)N1CC=C(c2c[nH]c3ncc(-c4ccc(N5CCCCC5)cc4)cc23)CC1", "TBK1 (Homo sapiens, UniProt Q9UHD2)", 2.78),
]

---

pIC50: −log10 of the molar value.
# merged literature set: pIC50 with TBK1 (Homo sapiens, UniProt Q9UHD2)
Observation Type: pIC50

# Smiles Data, Reading Qualifier, Meas Value
records = [
    ("CNS(=O)(=O)c1ccc(-c2cnc3[nH]cc(C4=CCN(C(=O)OC(C)(C)C)CC4)c3c2)cc1", "=", 7.55),
    ("N#Cc1cc(-c2c[nH]c3ncc(-c4ccc(N5CCOCC5)cc4)cc23)ccc1OC1CCOCC1", ">", 6.52),
    ("CCCCOC(=O)N1CC=C(c2c[nH]c3ncccc23)CC1", "=", 5.28),
    ("CC(C)(C)OC(=O)N1CC=C(c2c[nH]c3ncc(-c4cccc(S(N)(=O)=O)c4)cc23)CC1", "=", 7.38),
    ("COc1nc(Nc2cc(-c3cc(C#N)c(OC4CCOCC4)cn3)ncn2)ccc1C1CCN(C)CC1", ">", 7.00),
    ("NC(=O)c1nc(-c2ccncc2)sc1NC(=O)c1ccc(N)cc1", "=", 6.96),
    ("CC(C)NC(=O)N1CC=C(c2c[nH]c3ncc(-c4ccc(CN5CCOCC5)s4)cc23)CC1", "=", 9.14),
    ("N#Cc1cc(-c2ccnc(Nc3cc(CN)ccn3)c2)ccc1OC1CCOCC1", "=", 7.52),
    ("COc1ccc(-c2cnc3[nH]cc(C4=CCN(C(=O)OC(C)(C)C)CC4)c3c2)cn1", "=", 6.22),
    ("O=C(NC1CCCC1)N1CC=C(c2c[nH]c3ncc(-c4ccc(CN5CCOCC5)s4)cc23)CC1", "=", 7.55),
    ("N#Cc1cc(-c2ccnc(Nc3nccnc3CO)c2)ccc1OC1CCOCC1", "=", 6.46),
    ("CCCOC(=O)N1CC=C(c2c[nH]c3ncccc23)CC1", "=", 6.36),
    ("N#Cc1cc(-c2ccnc3cc(-c4ccc(N5CCOCC5)nc4)oc23)ccc1OC1CCOCC1", ">", 6.52),
    ("Nc1ncc(-c2ccoc2)cc1C(=O)Nc1ccncc1", "=", 6.21),
    ("NC(=O)c1nc(-c2ccncc2)sc1NC(=O)c1ccc(CCCCCC(=O)O)cc1", "=", 6.80),
    ("O=C(NC1CCCC1)N1CC=C(c2c[nH]c3ncc(-c4ccc(C(=O)N5CCOCC5)cc4)cc23)CC1", "=", 7.60),
]
